These measurements were taken from ChEMBL document CHEMBL3507680.

Assay: Human HepG2 cell viability assay in 384 well format
Type: toxicity, cell-based
Parameters: dose 125 nL, time 70.5 hour; concentration not given beside the values
Details: HepG2 cells, read-out: Inhibition
cytotoxicity at 70.5 h values by entry
assay.metric: cytotoxicity at 70.5 h

1. CN(C)[C@@H]1CCN(S(=O)(=O)C2CC2)[C@H]1Cc1ccccc1    1.77%
2. Cc1cncc(C(=O)N2CCC3(CCCN(c4nncs4)C3)C2)c1 (centres undefined)    -3.85%
3. COc1ncccc1C(=O)N1CCn2c(COCC3CC3)cnc2C1C (centres undefined)    -0.554%
4. CCN(C(=O)CCc1ccc2[nH]ccc2c1)C1CC(=O)NC1=O (centres undefined)    -2.25%
5. CNc1cc(C)nc(C2COCCN2Cc2csc(C)n2)n1 (centres undefined)    -9.53%
6. Cc1ncccc1OC1(C(=O)NCCC2CCCN2C)CCNCC1 (centres undefined)    13.7%
7. C1CCCN(c2nc(C3CC3)no2)CC1    1.49%
8. CC(c1cccnc1)N1CCN(CCCC#N)CC1 (centres undefined)    15%
9. COc1ccc([C@@H]2CN(c3cc(OC)nc(N)n3)C[C@H]2N(C)C)cc1    -3.33%
10. CCc1nnc(CN(C)c2nccc(N3CCCC(O)C3)n2)o1 (centres undefined)    27.2%
11. Cc1cc(CC(=O)N2CCCC2c2nc(C(C)C)no2)on1 (centres undefined)    5.26%
12. COCCS(=O)(=O)Nc1ccc(-n2cncn2)c(F)c1    -8.99%
13. Fc1ccccc1-c1cccc(C2CCCN(C3CCOCC3)C2)n1 (centres undefined)    -7.34%
14. O=C(Cc1cccs1)N1Cc2nc(CN3CCCC3)oc2C1    13%
15. CCOc1ccccc1-c1cc(N)[nH]n1    -5.47%
16. Cc1cnn(CC2CCCN2C(=O)Cc2cccs2)c1 (centres undefined)    -8.39%
17. COc1ccc(OC)c(C(=O)Nc2cccnc2-n2cncn2)c1    -10.9%
18. COCCNC(=O)Cn1c(C)cc2nc(SC)n(CC(C)C)c(=O)c21    2.11%
19. CCc1ccccc1Nc1noc2c1CN(C(=O)C1CCCO1)CC2 (centres undefined)    -3.46%
20. O=C(NCC1CCOC1)Nc1ccc(Oc2ccc(F)cc2)nc1 (centres undefined)    15.8%
21. Cc1cnccc1CN1CC[C@H](Oc2cccc(F)c2)[C@@](C)(O)C1    0.441%
22. CC(C)CN1CCCn2nc(CNC(=O)OCc3ccccc3)cc2C1    -5.5%
23. Cc1cc(CN(C)C(=O)C(c2cccnc2)N2CCOCC2)n[nH]1 (centres undefined)    -10.1%
24. CC(C)Nc1oc(-c2ccc(S(=O)(=O)N(C)C)o2)nc1C#N    -8.63%
